Data origin, for the record: PubChem BioAssay (NCI)

test system: MDA-MB-231 breast; test: NCI tumour cell line growth inhibition, 48 h
Below is a list of entries, each paired with its recorded GI50 value.
property-name: GI50

compound=O=S(=O)(Nc1cccc(Cl)c1)c1ccc(-c2cnc(C3CC3)o2)cc1 val="2.45 µM"
compound=CN(C)c1ccc2nc3ccc(=[N+](C)C)c([N+](=O)[O-])c-3sc2c1 val="0.578 µM"
compound="CC(=O)Oc1cn(-c2ccc(Cl)cc2)nc1C1=NN(C(C)=O)C(c2ccc(F)cc2F)O1 (centres undefined)" val="30.4 µM"
compound=COc1cccc(CNCCN2C(=O)c3ccc4c5c(ccc(c35)C2=O)C(=O)N(CCNCc2cccc(OC)c2)C4=O)c1 val="2.39 µM"
compound="COc1cccc(C2CC(=O)c3cc(N4CCCC4)ccc3N2)c1 (centres undefined)" val="4.66 µM"
compound=COc1ccc(OC)c(N(CCN2C(=O)c3ccccc3C2=O)C(=O)CCl)c1 val="1.24 µM"
compound=CC(C)c1ccc(COCc2cc(CN3CCCC3)c(O)c3ncccc23)cc1 val="0.774 µM"
compound=O=C1Nc2ccccc2/C1=C/C(=N/c1nnc(-c2ccc(Cl)cc2)s1)c1ccccc1 val="2.14 µM"
compound=CCOC(=O)C(=Cc1ccc(-c2ccccc2)cc1)C(=O)OCC val="2.98 µM"

###

test system: IGROV1 ovarian; assay: NCI tumour cell line growth inhibition, 48 h
property-name: TGI

compound=Cn1cc(NC(=O)c2cc(NC(=O)CCCCCCCCC(=O)Nc3cc(C(=O)Nc4cc(C(=O)NCCC(N)N)n(C)c4)n(C)c3)cn2C)cc1C(=O)NCCC(=N)N val="74.4 µM"
compound=c1ccc(CNc2ccc3[nH]c4cnccc4c3c2)cc1 val="34.4 µM"
compound=CN(c1nc(=[N+](C)C)ss1)C1CCCCC1 val="> 100 µM"
compound=COc1cc2c(cc1O)[C@@]1(Cc3ccc(OC)c(OC)c3)CCC(=O)N1CC2 val="> 100 µM"
compound=Cc1ccc2c(=O)cc(-c3ccc(Cl)cc3)[nH]c2n1 val="> 100 µM"
compound="C[C@@H]1OC(=O)C[C@H]2CC(=O)N(CCC3CN(C(=O)c4ccccc4)c4ccccc43)C[C@@H]21 (stereo partly drawn)" val="> 100 µM"
compound=CCOC(=O)C(=Cc1ccc(-c2ccccc2)cc1)C(=O)OCC val="5.61 µM"
compound=CCOC(=O)C(=CNC(=S)c1ccncc1)C(=O)OCC val="> 100 µM"
compound="C[C@]12OC(=O)[C@]3(O)CC[C@H]4[C@@H](C[C@@H](O)[C@@]5(Cl)CC=CC(=O)[C@]45C)[C@]45OCC6C(=O)O[C@@H]1C[C@@]6(C)[C@H](C4=O)[C@@]32O5 (stereo partly drawn)" val="2.74 µM"
compound=COc1ccc2cnc(N)c(C#Cc3cc(C(=O)Nc4ccc(CN5CCN(C)CC5)c(C(F)(F)F)c4)cnc3C)c2c1 val="> 40.2 µM"
compound="CC1=C(C(=O)OCCc2ccc([N+](=O)[O-])cc2)C(c2cccc([N+](=O)[O-])c2)C(C(=O)OC(C)C)=C(C)N1 (stereo not drawn)" val="> 100 µM"
compound=COc1ccc(NC(=O)CSc2nnc(-c3ccc(N=Cc4ccc(Cl)cc4)cc3)o2)cc1 val="> 100 µM"
compound="CCOC1CCC2C(CCC(/C=C/c3ccc(O)c4ncccc34)N2C)C1 (stereo not drawn)" val="> 100 µM"
compound="COc1cc([C@@H]2c3cc4c(cc3[C@@H](NC(=O)c3cccc(C#N)c3)C3COC(=O)[C@@H]32)OCO4)cc(OC)c1O (stereo partly drawn)" val="6.54 µM"
compound="CC1=NOC(C)(O)/C1=N/O (stereo not drawn)" val="> 100 µM"
compound="CSc1ccc(NC(=O)C2CCCCC2C(=O)O)cc1 (stereo not drawn)" val="> 100 µM"
compound=CC(C)c1ccccc1NC(=O)CCC(=O)NN val="> 100 µM"
compound="CC(C)[C@@H](C)CC[C@@H](C)C1CC=C2[C@@H]3CCC4C[C@@H](O[Si](C)(C)C(C)(C)C)CC[C@]4(C)C3CC[C@@]21C (stereo partly drawn)" val="> 100 µM"
compound="N/N=C(\\CCN1CCCC1)CC(c1ccccc1)c1c(O)c2ccccc2oc1=O (stereo not drawn)" val="> 100 µM"
compound=O=c1cc(-c2ccccc2)oc2cc(OCc3cn(Cc4ccc(F)cc4)nn3)cc(OCc3cn(Cc4ccc(F)cc4)nn3)c12 val="> 100 µM"
compound=O=C(Cn1nnc(-c2ccccc2)n1)N/N=C/c1cn(Cc2ccc(Cl)cc2Cl)c2ccccc12 val="> 100 µM"
compound=O=C(C(Cl)Cl)N(O)c1ccccc1OCc1ccccc1 val="> 100 µM"
compound=Cc1ncc(CSc2ccccc2N)c(CO)c1O val="> 100 µM"
compound=C(=C\c1cc(CCc2nc3ccccc3[nH]2)[nH]n1)/c1ccccc1 val="> 100 µM"
compound="COC(=O)C1=C(C(=O)OC)C2(C)OC1C(=O)C21CC1 (stereo not drawn)" val="57.7 µM"
compound=CCOC(=O)/C=C(\C)Sc1cc(O)c2ccccc2c1O val="27.7 µM"
compound=COc1ccc(-c2ccccc2)c(N/N=C2\CCCNC2=O)c1 val="> 100 µM"
compound=Clc1ccc(OCc2nnc3n2N=C(c2ccccc2)CS3)cc1 val="23.5 µM"
compound=C=CCN(c1cc(OCc2ccccc2)c2c(c(C)cn2S(=O)(=O)c2ccc([N+](=O)[O-])cc2)c1[N+](=O)[O-])S(C)(=O)=O val="> 100 µM"
compound=Cc1ccc(SC2=C(N(C)C)C(=O)c3ccccc3C2=O)cc1 val="17.6 µM"
compound=CC(=O)N(C(C)=O)c1c(N)n(C)c(=O)[nH]c1=O val="> 100 µM"
compound="COc1ccc(Cc2nn(C3OC(COC(C)=O)C(OC(C)=O)C(OC(C)=O)C3OC(C)=O)c(=S)n(-c3ccc(OC)cc3)c2=O)cc1 (stereo not drawn)" val="> 100 µM"
compound="CCCCCCCCCCCCCCCC(=O)Nc1ccn(C2OC(CO)C(O)C2O)c(=O)n1 (stereo not drawn)" val="> 100 µM"
compound=COc1ccc(-c2cc(-c3ccccc3)nc(N)c2-c2ccc3ccccc3c2)cc1 val="3.11 µM"
compound=Cc1ccc(N=Nc2c(O)c(C(=O)O)cc3ccccc23)c(S(=O)(=O)O)c1 val="> 100 µM"
compound=CCOc1ccc(/C=C\c2cc(OC)c(OC)c(OC)c2)cc1 val="> 100 µM"
compound="CC(=O)OCC1OC(n2c(C)c(C(C)=O)c(-c3ccc(Cl)cc3)c(C#N)c2=S)C(OC(C)=O)C(OC(C)=O)C1OC(C)=O (stereo not drawn)" val="> 100 µM"
compound="NC(N)=N/N=C(/CCN1CCCC1)CC(c1ccccc1)c1c(O)c2ccccc2oc1=O (stereo not drawn)" val="> 100 µM"
